binding signal values, listed per item
# target.or.test.system: T1, UNK ZnF1-6 (called full-length) (human, UniProt Q9C0B0 30-357)
# T1 sequence: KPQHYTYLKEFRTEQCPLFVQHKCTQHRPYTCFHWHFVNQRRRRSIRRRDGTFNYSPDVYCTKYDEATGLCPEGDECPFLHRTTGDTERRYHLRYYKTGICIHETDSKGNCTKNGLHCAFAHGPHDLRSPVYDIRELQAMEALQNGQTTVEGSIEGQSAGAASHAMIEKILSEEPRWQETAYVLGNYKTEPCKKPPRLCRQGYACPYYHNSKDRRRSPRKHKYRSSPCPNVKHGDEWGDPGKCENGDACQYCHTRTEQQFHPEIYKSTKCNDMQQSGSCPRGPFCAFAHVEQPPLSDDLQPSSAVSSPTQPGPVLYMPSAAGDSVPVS
# protocol.details: nsRBNS (natural sequence RNA bind-n-seq); RBNS binding buffer (assumed for nsRBNS): 25 mM Tris pH 7.5, 150 mM KCl, 3 mM MgCl2, 0.01% Triton X-100, 500 ug/ml BSA, 20 U/ml SUPERase-In, 4 C; UNK is unkempt and MSI1 is Musashi-1; names of the RNAs are library labels; protein concentration not given here; high values mean tight binding
Whole data set: some 5,800 sequences, median “enrichment r” near 0.68, cut for the highest 2% near 11. The list comes from a sample in which the highest values are over-represented; it also holds close analogues and randomly drawn sequences.

Example entries begin here.
chr2:88557131:88557241:-|3pUTR|ENSG00000172071|msi1|total|mutant (ssRNA) RNA: GGGAGUUCUACAGUCCGACGAUCGAGGACAAGCCGCACAAACUGUAUAACGGUUUAUGUCCGCCGUUUUACCGUCCUAUUUGCCGCAUUCAACCGCUUUAUUCCUCCGAUGGUUCCCGGGUGGGUUUACAGCUUUUUGUACUUCAACAGAGGAUUGAGCAUCA
0.471 enrichment R
chr5:76617584:76618642:-|CDS|ENSG00000164220|control|control|control (ssRNA) RNA: GGGAGUUCUACAGUCCGACGAUCUGAUGGCUUAUAUUUUAUAUAUCUCAUAGCUUUGUGCCUGGGUAGUCUUAAUAGUUGCUUAGAUCCAUUCCUUUAUUUUCUCAUGUCAAAAACCAGAAAUCACUCCACUGCUUACCUUACCAACAGAGGAUUGAGCAUCA
4.63 enrichment R

Need binding signal, item chr17:32711987:32712195:-|CDS|ENSG00000176658|control|control|control (ssRNA) RNA: GGGAGUUCUACAGUCCGACGAUCUCCUUCAGACAAAGAGGCUGUCAAGAAACUAAUUGAACGGUGUGGUUUUCAGGAUGAUGUAGCUUAUGGGAAGACCAAAAUUUUCAUUCGAACACCCCGAACAUUGUUUACCUUGGAAGACAACAGAGGAUUGAGCAUCA
0.434 enrichment R
